The measured values listed here are drawn from ChEMBL document CHEMBL3616364.

measurement protocol: physchem
details: PBS
Starred links: 1 amine or outer side, 2 acyl side, 3 side chain; linkers in the order of their positions; H or OH if unused. Non-standard residues stand in square brackets, D forms with d. Residues, ends and D or L forms follow the SMILES beside them. Ile(ψThz) = CC[C@H](C)[C@H](N[*:1])c1nc(C(=O)[*:2])cs1; NMeF = CN[C@@H](Cc1ccccc1)C(=O)O
recorded metric: solubility thermodynamic at 48 h (µM)
Write it as a number; the unit µM goes unstated.

I would be grateful if you could share the reported solubility thermodynamic at 48 h for CC[C@H](C)[C@@H]1NC(=O)[C@@H]2CCCN2C(=O)[C@H](Cc2ccccc2)NC(=O)[C@H](C)NC(=O)c2csc(n2)[C@H]([C@@H](C)CC)NC(=O)[C@@H]2CCCN2C1=O (cyclo(AFPIP[Ile(ψThz)])) .
107

I would be grateful if you could share the reported solubility thermodynamic at 48 h for CC[C@H](C)[C@@H]1NC(=O)[C@@H]2CCCN2C(=O)[C@H](C(C)C)NC(=O)[C@@H]2CCCN2C(=O)[C@H](Cc2ccccc2)N(C)C(=O)[C@H](C)NC(=O)c2csc1n2 (cyclo(A[NMeF]PVP[Ile(ψThz)])) .
296

I would be grateful if you could share the reported solubility thermodynamic at 48 h for CC[C@H](C)[C@@H]1NC(=O)[C@@H]2CCCN2C(=O)[C@H](Cc2ccccc2)N(C)C(=O)[C@H](CC(C)C)NC(=O)c2csc(n2)[C@H]([C@@H](C)CC)NC(=O)[C@@H]2CCCN2C1=O (cyclo(IP[Ile(ψThz)]L[NMeF]P)) .
111

###

What solubility thermodynamic at 48 h was measured for each of the following?
measurement protocol: physchem
details: PBS
Starred links: 1 amine or outer side, 2 acyl side, 3 side chain; linkers in the order of their positions; H or OH if unused. Non-standard residues stand in square brackets, D forms with d. Residues, ends and D or L forms follow the SMILES beside them. Ile(ψThz) = CC[C@H](C)[C@H](N[*:1])c1nc(C(=O)[*:2])cs1; ValThz = CC(C)[C@H](N[*:1])c1nc(C(=O)[*:2])cs1; NMeF = CN[C@@H](Cc1ccccc1)C(=O)O
Write it as a number; the unit µM goes unstated.

I would be grateful if you could share the reported solubility thermodynamic at 48 h for CC[C@H](C)[C@@H]1NC(=O)c2csc(n2)[C@H]([C@@H](C)CC)NC(=O)[C@@H]2CCCN2C(=O)[C@H]([C@@H](C)CC)NC(=O)[C@@H]2CCCN2C(=O)[C@H](Cc2ccccc2)N(C)C1=O (cyclo(I[NMeF]PIP[Ile(ψThz)])) .
12

I would be grateful if you could share the reported solubility thermodynamic at 48 h for CC(C)[C@@H]1NC(=O)c2csc(n2)[C@H](C(C)C)NC(=O)[C@@H]2CCCN2C(=O)[C@H](C(C)C)NC(=O)[C@@H]2CCCN2C(=O)[C@H](Cc2ccccc2)NC1=O (cyclo(FPVP[ValThz]V)) .
148

###

measurement protocol: Permeability of the compound at pH 7.4 at 10 uM after 10 hrs by LC-MS based PAMPA
Starred links: 1 amine or outer side, 2 acyl side, 3 side chain; linkers in the order of their positions; H or OH if unused. Non-standard residues stand in square brackets, D forms with d. Residues, ends and D or L forms follow the SMILES beside them. Ile(ψThz) = CC[C@H](C)[C@H](N[*:1])c1nc(C(=O)[*:2])cs1; LeuThz(4-CO) = CC(C)C[C@H](N[*:1])c1nc(C(=O)[*:2])cs1; NMeF = CN[C@@H](Cc1ccccc1)C(=O)O; NMeA = CN[C@@H](C)C(=O)O
What Papp at 10 h, 10 µM was measured for each of the following?
State the result as a value with its unit after it.

I would be grateful if you could share the reported Papp at 10 h, 10 µM for CC[C@H](C)[C@@H]1NC(=O)[C@@H]2CCCN2C(=O)[C@H](C(C)C)NC(=O)[C@@H]2CCCN2C(=O)[C@H](Cc2ccccc2)NC(=O)[C@H](C)NC(=O)c2csc1n2 (cyclo(AFPVP[Ile(ψThz)])) .
4.9 ×10⁻⁶ cm/s

I would be grateful if you could share the reported Papp at 10 h, 10 µM for CC[C@H](C)[C@@H]1NC(=O)[C@@H]2CCCN2C(=O)[C@H](Cc2ccccc2)NC(=O)[C@H](C)N(C)C(=O)c2csc(n2)[C@H]([C@@H](C)CC)NC(=O)[C@@H]2CCCN2C1=O (cyclo(FPIP[Ile(ψThz)][NMeA])) .
0.5 ×10⁻⁶ cm/s

I would be grateful if you could share the reported Papp at 10 h, 10 µM for CC[C@H](C)[C@@H]1NC(=O)c2csc(n2)[C@H]([C@@H](C)CC)NC(=O)[C@@H]2CCCN2C(=O)[C@H]([C@@H](C)CC)NC(=O)[C@@H]2CCCN2C(=O)[C@H](Cc2ccccc2)N(C)C1=O (cyclo(I[NMeF]PIP[Ile(ψThz)])) .
1.5 ×10⁻⁶ cm/s

I would be grateful if you could share the reported Papp at 10 h, 10 µM for CC[C@H](C)[C@@H]1NC(=O)c2csc(n2)[C@H]([C@@H](C)CC)NC(=O)[C@@H]2CCCN2C(=O)[C@H]([C@@H](C)CC)NC(=O)[C@@H]2CCCN2C(=O)[C@H](Cc2ccccc2)NC1=O (cyclo(FPIP[Ile(ψThz)]I)) .
6.1 ×10⁻⁶ cm/s

I would be grateful if you could share the reported Papp at 10 h, 10 µM for CC[C@H](C)[C@@H]1NC(=O)[C@@H]2CCCN2C(=O)[C@H](Cc2ccccc2)NC(=O)[C@H](CC(C)C)NC(=O)c2csc(n2)[C@H]([C@@H](C)CC)NC(=O)[C@@H]2CCCN2C1=O (cyclo(FPIP[Ile(ψThz)]L)) .
4.7 ×10⁻⁶ cm/s

I would be grateful if you could share the reported Papp at 10 h, 10 µM for CC[C@H](C)[C@@H]1NC(=O)[C@@H]2CCCN2C(=O)[C@H](Cc2ccccc2)N(C)C(=O)[C@H](CC(C)C)NC(=O)c2csc(n2)[C@H]([C@@H](C)CC)NC(=O)[C@@H]2CCCN2C1=O (cyclo(IP[Ile(ψThz)]L[NMeF]P)) .
17.2 ×10⁻⁶ cm/s

I would be grateful if you could share the reported Papp at 10 h, 10 µM for CC[C@H](C)[C@@H]1NC(=O)[C@@H]2CCCN2C(=O)[C@H](Cc2ccccc2)NC(=O)[C@H](C)NC(=O)c2csc(n2)[C@H]([C@@H](C)CC)NC(=O)[C@@H]2CCCN2C1=O (cyclo(AFPIP[Ile(ψThz)])) .
5.3 ×10⁻⁶ cm/s

I would be grateful if you could share the reported Papp at 10 h, 10 µM for CC[C@H](C)[C@@H]1NC(=O)[C@@H]2CCCN2C(=O)[C@H]([C@@H](C)O)NC(=O)[C@@H]2CCCN2C(=O)[C@H](Cc2ccccc2)NC(=O)[C@H](C)NC(=O)c2csc1n2 (cyclo(AFPTP[Ile(ψThz)])) .
0.2 ×10⁻⁶ cm/s

I would be grateful if you could share the reported Papp at 10 h, 10 µM for CC[C@H](C)[C@@H]1NC(=O)[C@@H]2CCCN2C(=O)[C@H](CC(C)C)NC(=O)[C@@H]2CCCN2C(=O)[C@H](Cc2ccccc2)NC(=O)[C@H](C)NC(=O)c2csc1n2 (cyclo(AFPLP[Ile(ψThz)])) .
5.3 ×10⁻⁶ cm/s

I would be grateful if you could share the reported Papp at 10 h, 10 µM for CC[C@H](C)[C@@H]1NC(=O)[C@@H]2CCCN2C(=O)[C@H](Cc2ccccc2)NC(=O)[C@H](C)NC(=O)c2csc(n2)[C@H](CC(C)C)NC(=O)[C@@H]2CCCN2C1=O (cyclo(AFPIP[LeuThz(4-CO)])) .
5.6 ×10⁻⁶ cm/s

I would be grateful if you could share the reported Papp at 10 h, 10 µM for CC[C@H](C)[C@@H]1NC(=O)[C@@H]2CCCN2C(=O)[C@H](Cc2ccccc2)N(C)C(=O)[C@H](C)NC(=O)c2csc(n2)[C@H]([C@@H](C)CC)NC(=O)[C@@H]2CCCN2C1=O (cyclo(A[NMeF]PIP[Ile(ψThz)])) .
11 ×10⁻⁶ cm/s

###

What Papp at 10 h, 10 µM was measured for each of the following?
measurement protocol: Permeability of the compound at pH 7.4 at 10 uM after 10 hrs by LC-MS based PAMPA
Starred links: 1 amine or outer side, 2 acyl side, 3 side chain; linkers in the order of their positions; H or OH if unused. Non-standard residues stand in square brackets, D forms with d. Residues, ends and D or L forms follow the SMILES beside them. Ile(ψThz) = CC[C@H](C)[C@H](N[*:1])c1nc(C(=O)[*:2])cs1; ValThz = CC(C)[C@H](N[*:1])c1nc(C(=O)[*:2])cs1; NMeF = CN[C@@H](Cc1ccccc1)C(=O)O; NMeI = CC[C@H](C)[C@H](NC)C(=O)O
Write it as a number; the unit ×10⁻⁶ cm/s goes unstated.

I would be grateful if you could share the reported Papp at 10 h, 10 µM for CC[C@H](C)[C@@H]1NC(=O)[C@@H]2CCCN2C(=O)[C@H](C(C)C)NC(=O)[C@@H]2CCCN2C(=O)[C@H](Cc2ccccc2)N(C)C(=O)[C@H](C)NC(=O)c2csc1n2 (cyclo(A[NMeF]PVP[Ile(ψThz)])) .
9.1

I would be grateful if you could share the reported Papp at 10 h, 10 µM for CC(C)[C@@H]1NC(=O)c2csc(n2)[C@H](C(C)C)NC(=O)[C@@H]2CCCN2C(=O)[C@H](C(C)C)NC(=O)[C@@H]2CCCN2C(=O)[C@H](Cc2ccccc2)NC1=O (cyclo(FPVP[ValThz]V)) .
4.7

I would be grateful if you could share the reported Papp at 10 h, 10 µM for CC[C@H](C)[C@@H]1NC(=O)[C@@H]2CCCN2C(=O)[C@H](Cc2ccccc2)NC(=O)[C@H](C)NC(=O)c2csc(n2)[C@H](C(C)C)NC(=O)[C@@H]2CCCN2C1=O (cyclo(AFPIP[ValThz])) .
4.8

I would be grateful if you could share the reported Papp at 10 h, 10 µM for CC[C@H](C)[C@@H]1NC(=O)[C@@H]2CCCN2C(=O)[C@H]([C@@H](C)CC)N(C)C(=O)[C@@H]2CCCN2C(=O)[C@H](Cc2ccccc2)NC(=O)[C@H](C)NC(=O)c2csc1n2 (cyclo(AFP[NMeI]P[Ile(ψThz)])) .
1.3
